Data provenance is PubChem BioAssay (NCI).

- Tested on: HOP-92 NSCLC
- testProtocol: NCI-60 one-dose screen, 48 h
- measurementConditions: 10 µM unless noted
This is part of a sample that, as a whole, favours compounds with a hit. Of some 83,000 tested, about 20% had one in any assay. Calls of active or inactive are those of the source. Rule for the calls: active = growth percent below 10; inactive = the rest.
Possible outcomes: class 1 for active, class 0 for inactive

- compound: "Cc1nc2sc(C(=O)Nc3ccccc3)c(N)c2cc1C(=O)/C=C/c1ccccc1"
  labelValue: "class 1"
- compound: "CN1CCN(CCCOC(=O)c2c3c(n4ccccc24)C(=O)c2ncccc2C3=O)CC1"
  labelValue: "class 0"
- compound: "O=C1OCC2=C1C(c1cccc(C(F)(F)F)c1)c1cc3c(cc1N2CCO)OCO3 (stereo not drawn)"
  labelValue: "class 0"
- compound: "COc1cc2c3c(n(CCCCNCCCn4c5c(c6cc(OC)c(OC)cc6c4=O)C(=O)c4cc6c(cc4-5)OCO6)c(=O)c2cc1OC)-c1cc2c(cc1C3=O)OCO2"
  labelValue: "class 0"
- compound: "O=c1oc2c(cnc3ccccc32)cc1-c1cccs1"
  labelValue: "class 0"
- compound: "O=C(CCCCl)NNc1nccc(Nc2ccc(S(=O)(=O)Nc3ccncc3)cc2)n1"
  labelValue: "class 0"
- compound: "CC(C)(C)C(=O)/C=C/c1ccc([N+](=O)[O-])cc1"
  labelValue: "class 0"
- compound: "C=C1C(=O)O[C@H]2[C@H]1CC/C(CNC(=O)c1cc3ccccc3[nH]1)=C\\CC[C@@]1(C)O[C@@H]21"
  labelValue: "class 1"

----------
- Test system: SNB-75 CNS
- testProtocol: NCI-60 one-dose screen, 48 h (100 = growth as untreated, 0 = no growth, -100 = all killed)
- measurementConditions: 10 µM unless noted
This is part of a sample that, as a whole, favours compounds with a hit. Of some 83,000 tested, about 20% had one in any assay.
Note to self: use true (1) only for growth readings below 80%; a reading exactly at 80% still gets false (0).

- smilesText: "Fc1ccc(COc2ccc(Nc3ncnc4sc5c(c34)CCCC5)cc2)cc1"
  labelValue: "false (0)"
- smilesText: "COc1cccc(/C=C/C(=O)c2cc3c(N)c(C(=O)Nc4ccccc4C)sc3nc2C)c1"
  labelValue: "true (1)"
- smilesText: "COC(=O)c1c2c(c(C)[n+]([O-])c1C)C(=O)C=CC2=O"
  labelValue: "true (1)"
- smilesText: "CCOC(=O)C1CCN(c2ccc(N3C[C@@H](CNCc4ccc(C(=N)N)cc4)OC3=O)cc2)CC1"
  labelValue: "false (0)"
- smilesText: "C=CC(=O)NCCOc1cccc(Nc2cc(NCCCNC(=O)C3CCC3)c(Br)cn2)c1"
  labelValue: "true (1)"
- smilesText: "CCN=C1C=CC(=C(c2ccc(N(C)C)cc2)c2ccc(N(C)C)cc2)c2ccccc21"
  labelValue: "true (1)"
- smilesText: "COCC[C@H]1CCC/C=C/[C@@H]2C[C@H](O)C[C@H]2[C@H](O)/C=C/C(=O)O1"
  labelValue: "true (1)"
- smilesText: "Cn1c(=O)c2c(c3ccccc31)OC(N)=C(C#N)C21C(=O)c2ccccc2C1=O"
  labelValue: "true (1)"
- smilesText: "O=C1c2cccnc2C(=O)c2c1c(C(=O)OCCCN1CCCCC1)c1ccccn21"
  labelValue: "true (1)"
- smilesText: "COc1ccc(Nc2ncccc2NC(=O)c2cn(Cc3cccc(Oc4ccccc4)c3)nn2)cc1OC"
  labelValue: "true (1)"
